# assay.procedure: RP-HPLC retention on Cosmosil Cholester column, buffer pH 7.4-acetonitrile
# Format: physicochemical
# study.conditions: extrapolated to buffer pH 7.4 as mobile phase, 25 °C
property.measured: log kw, Cholester

[
  {
    "molecule": "Cc1ccccc1N1CCn2c1nnc(-c1ccco1)c2=O [Compound 19]",
    "log kw, Cholester": 1.20
  },
  {
    "molecule": "Cc1cccc(N2CCn3c2nnc(-c2ccccc2)c3=O)c1C [Compound 36]",
    "log kw, Cholester": 2.34
  },
  {
    "molecule": "COC(=O)Cc1nnc2n(c1=O)CCN2c1ccc(OC)cc1 [Compound 9]",
    "log kw, Cholester": 0.57
  },
  {
    "molecule": "Cc1ccc(N2CCn3c2nnc(CCc2ccccc2)c3=O)cc1 [Compound 62]",
    "log kw, Cholester": 2.84
  },
  {
    "molecule": "O=c1c(Cc2ccc(Cl)cc2)nnc2n1CCN2c1ccccc1 [Compound 44]",
    "log kw, Cholester": 3.01
  },
  {
    "molecule": "CCOc1ccc(N2CCn3c2nnc(Cc2cccc(Cl)c2)c3=O)cc1 [Compound 54]",
    "log kw, Cholester": 3.31
  },
  {
    "molecule": "CCOc1ccc(N2CCn3c2nnc(-c2ccccc2)c3=O)cc1 [Compound 35]",
    "log kw, Cholester": 2.80
  },
  {
    "molecule": "Cc1ccc(N2CCn3c2nnc(Cc2ccc(Cl)cc2)c3=O)cc1 [Compound 50]",
    "log kw, Cholester": 3.39
  },
  {
    "molecule": "Cc1ccc(N2CCn3c2nnc(Cc2ccccc2)c3=O)cc1 [Compound 45]",
    "log kw, Cholester": 2.74
  },
  {
    "molecule": "O=c1c(Cc2ccc(Cl)cc2)nnc2n1CCN2c1ccc(Cl)cc1 [Compound 60]",
    "log kw, Cholester": 3.68
  }
]

I. O=c1c(-c2ccccc2)nnc2n1CCN2c1ccccc1Cl [Compound 37]
II. CCc1nnc2n(c1=O)CCN2c1ccccc1Cl [Compound 3]
Q: Select one: I or II . Criterion: greater recorded log kw, Cholester. Your choice should be expressed through its label.
Ans: I
(I: 1.96, II: 0.46)

P. CCOC(=O)Cc1nnc2n(c1=O)CCN2c1cccc(Cl)c1 [Compound 15]
Q. CCc1nnc2n(c1=O)CCN2c1ccccc1 [Compound 1]
Q: Field: lower log kw, Cholester | Options: P / Q Give the label of your selection.
Ans: Q
(Q: 0.20, P: 2.41)

* * *

# assay.procedure: RP-HPLC retention on Cosmosil Cholester column, buffer pH 7.4-acetonitrile
# Format: physicochemical
# study.conditions: slope of Soczewiński-Wachtmeister equation, acetonitrile φ 0.4–0.6
property.measured: s Cholester

Solved cases (2 shown):
[
  {
    "compound": "Cc1ccccc1N1CCn2c1nnc(-c1ccccc1)c2=O [Compound 30]",
    "value.reported": 3.50
  },
  {
    "compound": "O=c1c(Cc2cccc(Cl)c2)nnc2n1CCN2c1ccccc1 [Compound 43]",
    "value.reported": 4.80
  }
]

a. O=c1c(Cc2cccc(Cl)c2)nnc2n1CCN2c1ccc(Cl)cc1 [Compound 59]
b. CCOC(=O)Cc1nnc2n(c1=O)CCN2c1ccc(C)cc1 [Compound 13]
c. CCc1nnc2n(c1=O)CCN2c1ccc(C)cc1 [Compound 2]
Q: Ascending by s Cholester, please. Write the labels out in the order the request specifies.
Ans: c, b, a

This collection of values is drawn from paper PMC7037052.
